Biological target: Fatty-acid amide hydrolase 1 (Rattus norvegicus)
Sequence (P97612 whole entry): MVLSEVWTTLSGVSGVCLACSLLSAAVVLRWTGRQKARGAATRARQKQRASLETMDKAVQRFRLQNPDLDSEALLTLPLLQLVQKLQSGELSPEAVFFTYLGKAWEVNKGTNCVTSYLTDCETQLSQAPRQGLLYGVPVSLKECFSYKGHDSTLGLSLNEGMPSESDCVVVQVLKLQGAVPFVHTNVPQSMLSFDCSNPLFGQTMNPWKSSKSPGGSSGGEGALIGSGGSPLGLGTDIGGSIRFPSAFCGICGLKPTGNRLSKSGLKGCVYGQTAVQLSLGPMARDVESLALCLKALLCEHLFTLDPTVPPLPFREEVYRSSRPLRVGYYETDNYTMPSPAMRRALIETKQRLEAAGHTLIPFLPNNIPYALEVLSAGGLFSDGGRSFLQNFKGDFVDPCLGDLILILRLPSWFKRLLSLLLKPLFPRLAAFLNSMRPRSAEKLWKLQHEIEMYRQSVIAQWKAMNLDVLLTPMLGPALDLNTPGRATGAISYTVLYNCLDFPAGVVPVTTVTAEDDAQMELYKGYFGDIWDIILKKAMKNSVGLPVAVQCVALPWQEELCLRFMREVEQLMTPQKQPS
result.type: pIC50
Just so you know, pIC50 here is -log10 of the concentration in molar units; reply with that number alone.

Q) What reported pIC50 corresponds to CC(O)c1cccc(-c2cc(OC(=O)NC3CCCCC3)ccc2O)c1 (stereo unspecified) on Fatty-acid amide hydrolase 1 (Rattus norvegicus)?
A) 8.70
